Assignment: determine reported GI50 for the given compounds.
# Tested on: OVCAR-5
# assay procedure: NCI tumour cell line growth inhibition, 48 h
The source made the active and inactive calls. Rule as the data show it: active = GI50 up to about 1.1 µM and inactive = higher.

Retrieve GI50 measured for C=C(Nc1ccc(OC)cc1OC)C(=O)Cc1cccc[n+]1[O-] and print it.
> 100 µM (inactive)

Give GI50 for the following compound: O=C(O)CCCc1ccc2ccc3ccccc3c2c1
73.5 µM (inactive)

Kindly indicate its recorded GI50. Item: Cn1c(=O)c2c(nc(C(=N)SCC(=O)O)n2C)n(C)c1=O
47.5 µM (inactive)

Report GI50, nothing else, for this compound: N#Cc1ccc(-c2nc3c(N)nc(-c4ccccc4)nc3o2)cc1
> 100 µM (inactive)

Determine its reported GI50: C/C(CC(=O)Nc1ccccc1[N+](=O)[O-])=N\NC(N)=O
> 100 µM (inactive)

Indicate its recorded GI50; the compound in question is CN(C)c1ccc2c3c(c(=O)oc2c1)CCC3
> 100 µM (inactive)

Identify measured GI50 corresponding to CNNC(=NS(=O)(=O)c1cc(C#N)c(NNC)cc1S)NNC
> 10 µM (inactive)

Respond only with GI50 recorded for CONC(C)=O
> 100 µM (inactive)

Return the recorded GI50 value; entry: OCc1c(-c2cccc3ccccc23)sc(-c2cccc3ccccc23)c1CO
17 µM (inactive)

Please report the measured GI50 for CCCCCCCCCCCCCCCCCc1nc(C#N)c(N)o1
73.1 µM (inactive)

Read the entry COc1ccc2[nH]c3c(C)c4ccnc(NCCCN(C)CCCNc5ccc6ncn7c8ccccc8c(=O)c5c67)c4c(C)c3c2c1 and write its reported GI50.
1.3 µM (inactive)

In one line, give reported GI50 of the entry CN(C)CC(/C(Cc1ccccc1)=N\NC(=O)C[n+]1ccccc1)c1ccccc1 (stereo not drawn) .
> 100 µM (inactive)

Query GI50 for COC(=O)c1ncc2c(=O)[nH]c3ccccc3c2c1C(=O)OC
> 100 µM (inactive)

* * *

# System: MOLT-4
# assay procedure: NCI tumour cell line growth inhibition, 48 h
Activity calls are given as the source filed them. Cut-off read from the data, not from the text of the source: active = GI50 up to about 1.1 µM and inactive = higher.
Thanks in advance; please answer with one of these: active, inactive

Which outcome was entered for the compound S=C1/C(=N/c2ccccc2)N(c2ccccc2)/C(=N\c2ccccn2)N1c1ccccc1 in this test?
inactive

Please let me know the test result on file for CC1(C)OC(=O)[C@@](C)([C@H](O)c2ccccc2)O1 .
inactive

Assay result, entry Clc1ccc(C2=C(c3ccccc3)C(c3ccc(Cl)cc3)N3C(=N[C@H]4CCCC[C@@H]43)N2)cc1 (stereo not given in full) — outcome?
inactive

Assay outcome for CN(C)C(=O)/N=c1\ss/c(=N\C(=S)N(C)C)n1-c1ccccc1 : what was it?
inactive

For c1cc2n(n1)CCN2 , what call appears in the results of this test?
inactive

Just curious, what result did CN(COC(=O)C(C)(C)C)c1nc(N(C)COC(=O)C(C)(C)C)nc(N(C)COC(=O)C(C)(C)C)n1 get here?
inactive

// return assay outcome for O=C1c2cccc(NCCCNCCO)c2C(=O)c2cccc(NCCCNCCO)c21
inactive

Entry O=C(c1cccs1)N(C(=S)N1CCN(c2ccccc2)CC1)c1ccccc1 : call = ?
inactive

Hi, do you know how C[C@]12CC[C@H](O[C@@H]3O[C@H](CO[C@@H]4O[C@H](CO)[C@@H](O)[C@H](O)[C@H]4O)[C@@H](O)[C@H](O)[C@H]3O)C[C@@H]1CC[C@@H]1[C@@H]2CC[C@]2(C)[C@@H](C3=CC(=O)OC3)CC[C@]12O came out in this test?
inactive

Call for entry CC1(C)OCC[C@@H]1[Si](C)(C)C :
inactive

Which result was noted for this compound in the test: O=C(O)c1ccccc1C1c2ccc(Cl)cc2Oc2cc(Cl)ccc21
inactive

For Cn1c(S)nc2c(Cl)cc(Cl)cc2c1=O , which call appears in the assay record?
inactive

I would be grateful if you could indicate the recorded call for COC(=O)c1ncc2c(=O)[nH]c3ccccc3c2c1C(=O)OC .
inactive

Please indicate how the test categorized [O-][S+]1SC(=S)C2C=CC=NC21 (stereo not given) .
inactive

Call for entry CN(CCCNC(=O)c1n[nH]c2c1ccc1ccccc12)CCCNC(=O)c1n[nH]c2c1ccc1ccccc12 :
inactive

Look up the recorded call for O=S(=O)(N/N=C/c1c(Cl)cccc1Cl)c1ccccc1 in this test.
inactive

Can you look up the reported call for CC1=C2c3c(C)ccc4ccc(C)c(c34)C2(O)C(C)C1=O (stereo not given) for me?
inactive

Query: recorded result category for CC(=O)c1cccc(NC(=O)C(=O)C(C(=O)c2ccccc2F)C2OC(=O)c3ccccc32)c1 (stereo not given) in this test
inactive

What classification did CC1=C2C(=C[C@@](C)(CO)[C@@H]2O)C(=O)[C@](C)(O)C12CC2 end up with in this test?
active

Hi team, can someone confirm the assay call for Nc1c(C(=O)c2ccc(Cl)cc2)[nH]c(Nc2ccc(Cl)cc2)c1C(=S)Nc1ccccc1 ?
inactive
